# assayed_system: human TLR7 (Homo sapiens, UniProt Q9NYK1)
# Construct: expressed in transfected cells; host or cells: HEK293 (HEK-Blue-7)
# Sequence (Q9NYK1 27-1049): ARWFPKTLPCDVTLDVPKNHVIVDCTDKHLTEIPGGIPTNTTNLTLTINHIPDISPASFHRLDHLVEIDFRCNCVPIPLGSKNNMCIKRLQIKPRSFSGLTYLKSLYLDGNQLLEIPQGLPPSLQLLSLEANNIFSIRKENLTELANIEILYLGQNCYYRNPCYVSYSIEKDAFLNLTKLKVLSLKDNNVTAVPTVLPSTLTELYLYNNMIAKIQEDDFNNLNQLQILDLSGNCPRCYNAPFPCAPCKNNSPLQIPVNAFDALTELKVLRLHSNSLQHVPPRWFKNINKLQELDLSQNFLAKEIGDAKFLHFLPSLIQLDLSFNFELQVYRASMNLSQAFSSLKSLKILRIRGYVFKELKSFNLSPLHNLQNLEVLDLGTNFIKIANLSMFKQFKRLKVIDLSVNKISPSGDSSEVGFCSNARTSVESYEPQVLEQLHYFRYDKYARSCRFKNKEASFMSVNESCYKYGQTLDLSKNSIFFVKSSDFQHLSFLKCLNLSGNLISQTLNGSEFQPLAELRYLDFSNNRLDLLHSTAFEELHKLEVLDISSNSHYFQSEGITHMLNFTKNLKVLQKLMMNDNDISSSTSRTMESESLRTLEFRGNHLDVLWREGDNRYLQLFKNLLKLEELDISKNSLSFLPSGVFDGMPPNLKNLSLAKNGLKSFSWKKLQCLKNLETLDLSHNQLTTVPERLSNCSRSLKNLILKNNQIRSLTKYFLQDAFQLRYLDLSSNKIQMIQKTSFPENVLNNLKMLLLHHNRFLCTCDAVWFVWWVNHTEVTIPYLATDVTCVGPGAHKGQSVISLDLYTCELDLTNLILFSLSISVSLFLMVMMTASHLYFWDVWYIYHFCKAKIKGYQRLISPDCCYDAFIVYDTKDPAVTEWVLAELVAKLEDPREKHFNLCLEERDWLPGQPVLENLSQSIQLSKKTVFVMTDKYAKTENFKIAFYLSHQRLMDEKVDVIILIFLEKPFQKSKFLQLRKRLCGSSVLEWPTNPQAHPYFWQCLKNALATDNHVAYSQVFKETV
# measurement_description: Human TLR7 reporter gene assay (NF-κB induction), HEK-Blue-7 cells
# Format: cell-based
# experimental_context: human TLR7-specific reporter gene assay; Inactive = no activity up to 500 μg/mL; read-out: hTLR7-agonistic Activity (EC50)
Item-by-item account of EC50
A number alone suffices; assume nM.

Solved entries:
[
  {
    "compound": "CCCCc1nc2c(N)nc(NCc3ccco3)cc2n1Cc1ccccc1 [Compound 19k]",
    "reported_value": 75
  },
  {
    "compound": "CCCCc1nc2c(N)nc(NCc3ccncc3)cc2n1Cc1ccccc1 [Compound 19l]",
    "reported_value": 250
  },
  {
    "compound": "CCCCc1nc2c(N)nc(NCc3ccc(CNc4cc5c(nc(CCCC)n5Cc5ccccc5)c(N)n4)cc3)cc2n1Cc1ccccc1 [Compound 19r]",
    "reported_value": 1080
  },
  {
    "compound": "CCCCc1cc2c(nc(CCCC)n2Cc2ccccc2)c(N)n1 [Compound 23a]",
    "reported_value": 280
  }
]

// switching to the query compound
Data request: Which value of EC50 has been reported for CCCCc1nc2c(N)nc(NCc3ccc(-c4ccccc4)cc3)cc2n1Cc1ccccc1 [Compound 19o] in the records?
Data returned: 1090

Data credit: patent US10471139B2
